MEASUREMENT_TARGET: CYP3A4 (Homo sapiens, UniProt P08684)
Sequence (P08684 2-503): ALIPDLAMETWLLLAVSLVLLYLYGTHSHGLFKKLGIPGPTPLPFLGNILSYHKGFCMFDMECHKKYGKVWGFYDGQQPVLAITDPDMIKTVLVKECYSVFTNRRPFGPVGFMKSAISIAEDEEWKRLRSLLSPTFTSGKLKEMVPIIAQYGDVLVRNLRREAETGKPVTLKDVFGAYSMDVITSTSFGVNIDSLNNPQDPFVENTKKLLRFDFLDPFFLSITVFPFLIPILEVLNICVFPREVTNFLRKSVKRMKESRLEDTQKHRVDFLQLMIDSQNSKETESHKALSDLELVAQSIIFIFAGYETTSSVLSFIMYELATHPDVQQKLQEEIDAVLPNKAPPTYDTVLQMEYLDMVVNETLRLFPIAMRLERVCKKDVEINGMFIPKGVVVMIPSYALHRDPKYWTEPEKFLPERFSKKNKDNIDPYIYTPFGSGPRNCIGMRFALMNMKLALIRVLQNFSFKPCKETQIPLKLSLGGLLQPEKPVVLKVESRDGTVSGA
METHOD: IC50 vs CYP3A by inhibition of lopinavir metabolism in human liver microsomes
Assay type: biochemical
Design: 0.01 mg/mL protein human liver microsomes (BD Gentest); tissue BD Gentest; host or cells: human liver microsomes
PROTOCOL_CONDITIONS: 1.5 μM lopinavir, 0.01 mg/mL human liver microsomes, 8 min at 37° C.; read-out: CYP IC50 (nM) 3A4 (LPV)
Experimental: Determination of IC50 vs CYP3A by Measurement of Inhibition of Lopinavir Metabolism This assay was performed in a standard 96-well plate design. […] The production of the sum of three hydroxylated metabolites (M2: 6-hydroxy lopinavir, M3: 4-hydroxy lopinavir, M4: 4-hydroxy lopinavir (epimer of M3), Kumar et al., 1999) was determined after incubation for 8 min at 37° C. […] The peak area ratio of the analyte to the internal standard was used to quantify the metabolite. […]
This listing pairs molecules with measured log10 IC50.
REPORTED_METRIC: log10 IC50 (log10 of the value in nM)

                                   molecule  recorded_value
0  O=C(c1cccnc1)N1CCCC1c1ccccc1-c1cncn1CCc1ccc(F)cc1 (single isomer, unassigned) [Compound 42b]            0.97
1  CC(=O)Nc1ncc(S(=O)(=O)NCc2ccccc2-c2cncn2CCc2ccc(F)cc2)s1            1.27
2  CC(=O)Nc1ncc(S(=O)(=O)N2CCCC2c2ccccc2-c2cncn2CCc2ccc(F)cc2)s1 (stereo not shown)            0.75
3  O=S(=O)(c1ccc(N2CCC(O)CC2)nc1)N1CCCC1c1cccc(-c2cncn2CCc2ccc(F)cc2)c1 (single isomer, unassigned) [Compound 57b]            0.15
4  O=S(=O)(c1ccc(N2CCOCC2)nc1)N1CCCC1c1ccccc1-c1cncn1CCc1ccc(F)cc1 (stereo not shown)            0.88

###

MEASUREMENT_TARGET: CYP3A4 (Homo sapiens)
METHOD: IC50 vs CYP3A by inhibition of lopinavir metabolism in human liver microsomes
Format: biochemical
Design: 0.01 mg/mL protein human liver microsomes (BD Gentest); tissue BD Gentest; host or cells: human liver microsomes
PROTOCOL_CONDITIONS: 1.5 μM lopinavir, 0.01 mg/mL human liver microsomes, 8 min at 37° C.; read-out: CYP IC50 (nM) 3A4 (LPV)
Measured IC50 of individual entries
REPORTED_METRIC: IC50 (nM)

>>> print(df.to_string())
                                   compound  uom  qual  recorded_value
0  CS(=O)(=O)N1CCCC1c1cccc(-c2cncn2CCc2ccc(F)cc2)c1 (stereo not shown)   nM     =            34.7
1  O=S(=O)(c1cnc(Cl)c(Br)c1)N1CCCC1c1ccccc1-c1cncn1CCc1ccc(F)cc1 (stereo not shown)   nM     =              23
2  CN1CCN(c2ncc(S(=O)(=O)N3Cc4cccc(-c5cncn5CCc5ccc(F)cc5)c4C3)s2)CC1   nM     =             9.5
3  O=C(c1cccnc1)N1CCCC1c1cccc(-c2cncn2CCc2ccc(F)cc2)c1 (single isomer, unassigned) [Compound 48b]   nM     >             100

Attribution: patent US9975888B2
